We begin with a simple list: items and their reported pIC50.
target: ethylbenzene dehydrogenase (EbDH) (Aromatoleum aromaticum, UniProt Q5P5I0); experiment: inhibition of ethylbenzene-dependent activity, dose response; type: biochemical; details: substrate ethylbenzene; preincubated with inhibitor
Please treat pIC50 as minus the base-10 logarithm of the molar concentration.

Item smiles: CCN1BC=CC=C1
Target under test: ethylbenzene dehydrogenase (EbDH) (Aromatoleum aromaticum, UniProt Q5P5I0)
pIC50: 5.55

Task: Specify pIC50 for CCB1C=CC=CN1 and stop.
Result: 4.00

Cited source for all entries: paper PMC3748812
